# Subject Of Test: hPAD4 (Homo sapiens, UniProt Q9UM07)
# Sequence (Q9UM07 whole entry): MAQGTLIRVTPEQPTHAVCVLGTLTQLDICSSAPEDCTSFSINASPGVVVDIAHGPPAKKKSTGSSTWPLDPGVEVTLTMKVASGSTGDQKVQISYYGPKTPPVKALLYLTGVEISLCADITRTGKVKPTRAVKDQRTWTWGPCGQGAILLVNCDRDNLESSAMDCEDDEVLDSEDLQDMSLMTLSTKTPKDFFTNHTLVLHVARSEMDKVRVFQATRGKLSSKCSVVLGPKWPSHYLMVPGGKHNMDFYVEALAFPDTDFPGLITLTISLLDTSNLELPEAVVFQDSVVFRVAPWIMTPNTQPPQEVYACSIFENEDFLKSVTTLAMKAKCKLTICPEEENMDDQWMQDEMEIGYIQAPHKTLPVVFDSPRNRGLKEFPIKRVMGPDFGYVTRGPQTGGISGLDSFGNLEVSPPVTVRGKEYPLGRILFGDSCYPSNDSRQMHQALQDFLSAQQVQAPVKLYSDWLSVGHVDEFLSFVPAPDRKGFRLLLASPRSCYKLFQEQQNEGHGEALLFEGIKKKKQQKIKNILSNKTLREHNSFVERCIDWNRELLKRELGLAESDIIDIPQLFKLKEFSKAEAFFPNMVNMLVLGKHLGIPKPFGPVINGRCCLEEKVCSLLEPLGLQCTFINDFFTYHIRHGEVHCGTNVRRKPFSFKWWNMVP
# Assay Method Text: PAD4 inhibition assay, RapidFire mass spectrometry (hPAD4 RFMS)
# Format: biochemical
# Protocol Conditions: pIC50=-log(IC50); read-out: hPAD4 RFMS pIC50 (converted)
Structures can show the parent of a compound that is named as a salt.
For each of the compounds below, state its IC50.

Which IC50 value belongs to CO[C@]1(C)C[C@H](Cn2c(-c3cc4cccnc4n3CC3CC3)nc3cc(C(=O)N4C[C@H]5CC[C@@H]4[C@@H]5N)cnc32)C1 ?
≤ 1 µM

Given the compound Cn1c(-c2cc3cccnc3n2CC(F)(F)F)nc2cc(C(=O)N3CCC[C@@H](N)C3)cnc21 , what is its reported IC50?
10 to 100 µM

Give its IC50 value. Item: CCn1c(-c2cc3ccc(OC)nc3n2CC2CC2)nc2cc(C(=O)N3CCC[C@@H](N)C3)cnc21
≤ 1 µM

For the compound Cn1c(-c2cc3cccnc3n2CC2CC2)nc2cc(C(=O)N3CC[C@@H]4CCN[C@@H]4C3)cnc21 (single isomer, unassigned) [Compound I-10, hydrochloride] , what IC50 is on record?
1 to 10 µM

For the compound shown here, Cn1c(-c2cc3cccnc3n2CC2CC2)nc2cc(C(=O)N3CCC4CCNC4C3)cnc21 (centres unmarked) [Compound I-8, hydrochloride] , give the reported IC50.
1 to 10 µM

What measured IC50 goes with Cn1c(-c2cc3cccnc3n2CC(F)(F)F)nc2cc(C(=O)N3CC[C@@H]4CCN[C@@H]4C3)cnc21 ?
10 to 100 µM

Would you mind telling me what IC50 value was observed for Cn1c(-c2cc3cccnc3n2CC2CC2)nc2cc(C(=O)N3CC[C@H]4CCN[C@H]4C3)cnc21 [Compound I-25] ?
10 to 100 µM

For the compound CCn1c(-c2nc3cc(C(=O)N4C[C@H]5CC[C@@H]4[C@@H]5N)cnc3n2C)cc2ccc(OC)nc21 , what IC50 is on record?
≤ 1 µM

Entry under review: N[C@@H]1CCCN(C(=O)c2cnc3c(c2)nc(-c2cc4cccnc4n2CC2CC2)n3CC(F)F)C1 . Reported IC50?
1 to 10 µM

What value of IC50 has been reported for the following compound? Cn1c(-c2cc3cccnc3n2CC2CC2)nc2cc(C(=O)N3CC[C@@H]4CCN[C@@H]4C3)cnc21 [Compound I-26]
1 to 10 µM

For COc1ccc2cc(-c3nc4cc(C(=O)N5C[C@H]6CC[C@@H]5[C@@H]6N)cnc4n3C[C@H]3C[C@@](C)(OC)C3)n(CC3CC3)c2n1 , what is its reported IC50?
≤ 1 µM

Entry under review: CCn1c(-c2nc3cc(C(=O)N4CCC[C@@H](N)C4)cnc3n2CCOC)cc2cccnc21 . Reported IC50?
10 to 100 µM

I have this compound here, N[C@@H]1[C@@H]2CC[C@H]1N(C(=O)c1cnc3c(c1)nc(-c1cc4cccnc4n1CC1CC1)n3CC(F)F)C2 , and I need its recorded IC50.
≤ 1 µM

Entry CCn1c(-c2cc3cccnc3n2CC2CC2)nc2cc(C(=O)N3CCC[C@@H](N)C3)cnc21 has what IC50?
1 to 10 µM

---

# Subject Of Test: UniProtKB Q9Z183
# Sequence (Q9Z183 whole entry): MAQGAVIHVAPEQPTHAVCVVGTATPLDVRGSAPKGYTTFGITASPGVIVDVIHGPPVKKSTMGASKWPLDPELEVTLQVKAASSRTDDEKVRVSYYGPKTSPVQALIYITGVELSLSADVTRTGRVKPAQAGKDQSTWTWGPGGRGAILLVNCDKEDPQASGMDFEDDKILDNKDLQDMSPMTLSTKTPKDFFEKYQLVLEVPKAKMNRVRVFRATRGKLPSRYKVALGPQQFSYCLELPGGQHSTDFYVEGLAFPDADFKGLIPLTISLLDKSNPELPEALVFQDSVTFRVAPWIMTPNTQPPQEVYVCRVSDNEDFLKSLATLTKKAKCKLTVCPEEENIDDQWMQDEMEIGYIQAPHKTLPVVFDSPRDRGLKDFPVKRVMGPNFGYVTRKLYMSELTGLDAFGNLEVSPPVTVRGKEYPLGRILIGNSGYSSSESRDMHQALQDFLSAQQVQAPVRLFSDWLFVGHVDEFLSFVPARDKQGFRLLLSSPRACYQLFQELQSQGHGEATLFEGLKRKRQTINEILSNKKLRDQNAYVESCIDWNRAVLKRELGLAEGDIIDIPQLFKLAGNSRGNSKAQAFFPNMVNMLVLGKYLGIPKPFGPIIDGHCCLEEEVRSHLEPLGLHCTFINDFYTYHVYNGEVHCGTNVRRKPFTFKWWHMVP
# Assay Method Text: PAD4 inhibition assay, RapidFire mass spectrometry (mPAD4 RFMS)
# Type: biochemical
# Protocol Conditions: pIC50=-log(IC50); read-out: mPAD4 RFMS pIC50 (converted)
Reported Property: IC50

Give the measured IC50 of CCn1c(-c2nc3cc(C(=O)N4CCC[C@@H](N)C4)cnc3n2CCOC)cc2ccc(OC)nc21 .
1000 to 10000 nM

What IC50 value was documented for this molecule, Cn1c(-c2cc3cccnc3n2CC2CC2)nc2cc(C(=O)N3C[C@@H](N)C[C@H](F)C3)cnc21 ?
≤ 1000 nM

Please report the recorded IC50 for COc1ccc2cc(-c3nc4cc(C(=O)N5C[C@H]6CC[C@@H]5[C@@H]6N)cnc4n3C)n(CC3CC3)c2n1 .
≤ 1000 nM

I have this molecule here, Cn1c(-c2cc3cccnc3n2CC2CC2)nc2cc(C(=O)N3CCC[C@@H](N)C3)cnc21 , and I need its recorded IC50.
≤ 1000 nM

---

# Subject Of Test: hPAD4 (Homo sapiens, UniProt Q9UM07)
# Assay Method Text: PAD4 inhibition assay, RapidFire mass spectrometry (hPAD4 RFMS)
# Assay type: biochemical
# Protocol Conditions: 100 nM hPAD4 enzyme, 50 μM substrate peptide, 65 mins at 37° C.; read-out: hPAD4 RFMS IC50
pIC50: −log10 of the molar value. Structures can show the parent of a compound that is named as a salt.
Reported Property: pIC50

Item COc1ccc2cc(-c3nc4cc(C(=O)N5C[C@H]6CC[C@@H]5[C@@H]6N)cnc4n3C[C@H]3C[C@@](C)(OC)C3)n(CC3CC3)c2n1 has what recorded pIC50?
≥ 6.00

Recorded pIC50 for CCn1c(-c2nc3cc(C(=O)N4CCC[C@@H](N)C4)cnc3n2CC)cc2cccnc21 , please?
5.00 to 5.30

What value of pIC50 has been reported for the following compound? CCn1c(-c2nc3cc(C(=O)N4C[C@H]5CC[C@@H]4[C@@H]5N)cnc3n2CCOC)cc2ccc(OC)nc21
≥ 6.00

Bench note: what pIC50 did Cn1c(-c2cc3cccnc3n2CC2CC2)nc2cc(C(=O)N3CCC[C@@H](N)C3)cnc21 show?
5.30 to 6.00

Which pIC50 value is on record for Cn1c(-c2cc3cc(F)c(F)cc3n2CC2CC2)nc2cc(C(=O)N3CCC[C@@H](N)C3)cnc21 ?
5.30 to 6.00

For the compound shown here, COCCn1c(-c2cc3ccc(OC)nc3n2CC2CC2)nc2cc(C(=O)N3C[C@H]4CC[C@@H]3[C@@H]4N)cnc21 , give the reported pIC50.
≥ 6.00

May I ask what pIC50 has been recorded for Cn1c(-c2cc3cccnc3n2CC2CC2)nc2cc(C(=O)N3C[C@H]4CC[C@@H]3[C@@H]4N)cnc21 ?
≥ 6.00

Value lookup for pIC50; key = CCn1c(-c2nc3cc(C(=O)N4CCC[C@@H](N)C4)cnc3n2CCOC)cc2ccc(OC)nc21
5.00 to 5.30

Give its pIC50 value. Item: CCn1c(-c2cc3cccnc3n2CC2CC2)nc2cc(C(=O)N3CCC[C@@H](N)C3)cnc21
5.30 to 6.00

Look up pIC50: Cn1c(-c2cc3cccnc3n2CC2CC2)nc2cc(C(=O)N3CC[C@@H]4CCN[C@@H]4C3)cnc21 (single isomer, unassigned) [Compound I-10, hydrochloride]
5.30 to 6.00

Could you tell me which pIC50 is on file for Cn1c(-c2cc3cccnc3n2CC2CC2)nc2cc(C(=O)N3CCC4CCNC4C3)cnc21 (centres unmarked) [Compound I-24] ?
5.00 to 5.30

Entry under review: CCn1c(-c2nc3cc(C(=O)N4CCC[C@@H](N)C4)cnc3n2CCOC)cc2cccnc21 . Reported pIC50?
≤ 5.00

Form field: reported pIC50 of Cn1c(-c2cc3cccnc3n2CC(F)(F)F)nc2cc(C(=O)N3CCC4CCNC4C3)cnc21 (centres unmarked) [Compound I-19]
≤ 5.00

Any idea what its pIC50 is? The compound is CC1CCC(N)CN1C(=O)c1cnc2c(c1)nc(-c1cc3cccnc3n1CC1CC1)n2C (centres unmarked)
5.30 to 6.00

---

# Subject Of Test: hPAD4 (Homo sapiens, UniProt Q9UM07)
# Assay Method Text: PAD4 inhibition assay, RapidFire mass spectrometry (hPAD4 RFMS)
# Assay type: biochemical
# Protocol Conditions: 100 nM hPAD4 enzyme, 50 μM substrate peptide, 65 mins at 37° C.; read-out: hPAD4 RFMS IC50
pIC50: −log10 of the molar value. Where a name gives a salt, the structure may show the parent alone.
Reported Property: pIC50

Provide value of pIC50 for this record tested with hPAD4 (Homo sapiens, UniProt Q9UM07): COCCn1c(-c2cc3cccnc3n2CC2CC2)nc2cc(C(=O)N3CCC[C@@H](N)C3)cnc21
5.30 to 6.00

Provide the documented pIC50 with hPAD4 (Homo sapiens, UniProt Q9UM07) as the system for N[C@@H]1[C@@H]2CC[C@H]1N(C(=O)c1cnc3c(c1)nc(-c1cc4cccnc4n1CC1CC1)n3CC(F)F)C2
≥ 6.00

Quick check: pIC50 on hPAD4 (Homo sapiens, UniProt Q9UM07), item Cn1c(-c2cc3cccnc3n2CC(C)(F)F)nc2cc(C(=O)N3CCC[C@@H](N)C3)cnc21 ?
5.00 to 5.30

Give hPAD4 (Homo sapiens, UniProt Q9UM07) pIC50 for CCn1c(-c2nc3cc(C(=O)N4C[C@H]5CC[C@@H]4[C@@H]5N)cnc3n2C)cc2ccc(OC)nc21
≥ 6.00

Item Cn1c(-c2cc3cccnc3n2CC(F)(F)F)nc2cc(C(=O)N3CC[C@H]4CCN[C@H]4C3)cnc21 [Compound I-3] with hPAD4 (Homo sapiens, UniProt Q9UM07) - pIC50?
≤ 5.00

Hello, I am looking for reported pIC50 with hPAD4 (Homo sapiens, UniProt Q9UM07) for N[C@@H]1CCCN(C(=O)c2cnc3c(c2)nc(-c2cc4cccnc4n2CC2CC2)n3CC(F)F)C1 . Could you help?
5.30 to 6.00

Requested read-out pIC50, target or system hPAD4 (Homo sapiens, UniProt Q9UM07), entry Cn1c(-c2cc3cccnc3n2CC2CC2)nc2cc(C(=O)N3CC[C@H]4CCN[C@H]4C3)cnc21 (single isomer, unassigned) [Compound I-9, hydrochloride]
≤ 5.00
